Test system: LoVo-Dox
measurementDescription: SRB colorimetric assay of cell growth and viability, LoVo-Dox
Format: cell-based, human
conditionNotes: LOVO-DOX; 48 hours exposure
Where a SMILES comes first, the peptide text is derived from it. Bridges are numbered along the chain shown (N, C = ends). [ ]: non-standard residue; d: D form. The star is where a group is joined. 2Nal = N[C@@H](Cc1ccc2ccccc2c1)C(=O)O; d(aIle) = CC[C@H](C)[C@@H](N)C(=O)O; d(aThr) = C[C@@H](O)[C@@H](N)C(=O)O; Hexanoyl(5-Me) = CC(C)CCCC(=O)*; Phg = N[C@H](C(=O)O)c1ccccc1; Orn = NCCC[C@H](N)C(=O)O; Dhb = C/C=C(\N)C(=O)O
recordedMetric: GI50 (nM)
Give bare numbers, in nM.

Before answering, review these 8 worked examples.
C/C=C1\NC(=O)[C@H](Cc2ccccc2)NC(=O)[C@@H](C(C)C)NC(=O)[C@@H]([C@@H](C)CC)NC(=O)[C@H](NC(=O)[C@H](NC(=O)[C@H](CCCN)NC(=O)[C@H]2CCCCN2C(=O)[C@H](NC(=O)[C@@H](NC(=O)[C@@H](NC(=O)[C@H](NC(=O)CC[C@@H](C)CC)C(C)C)[C@@H](C)O)C(C)C)C(C)C)[C@@H](C)CC)[C@@H](C)OC(=O)[C@H](C(C)C)NC1=O [Compound 60, [D-Pip^9, (4S)-MeHex^14]-KF] ... 624
C/C=C1\NC(=O)[C@H](Cc2cccc(Cl)c2)NC(=O)[C@@H](C(C)C)NC(=O)[C@@H]([C@@H](C)CC)NC(=O)[C@H](NC(=O)[C@H](NC(=O)[C@H](CCCN)NC(=O)[C@H]2CCCN2C(=O)[C@H](NC(=O)[C@@H](NC(=O)[C@@H](NC(=O)[C@H](NC(=O)CCCC(C)C)C(C)C)[C@@H](C)O)C(C)C)C(C)C)[C@@H](C)CC)[C@@H](C)OC(=O)[C@H](C(C)C)NC1=O [Compound 82, [Phe(3-Cl)^3]-KF] ... 45.3
C/C=C1\NC(=O)[C@H](Cc2ccccc2)NC(=O)[C@@H](C(C)C)NC(=O)[C@@H]([C@@H](C)CC)NC(=O)[C@H](NC(=O)[C@H](NC(=O)[C@H](CCCN)NC(=O)[C@H]2CCCN2C(=O)[C@H](NC(=O)[C@@H](NC(=O)CNC(=O)[C@H](NC(=O)CCCC(C)C)C(C)C)C(C)C)C(C)C)[C@@H](C)CC)[C@@H](C)OC(=O)[C@H](C(C)C)NC1=O [Compound 111, [Gly^12]-KF] ({Hexanoyl(5-Me)}-[dV]GV[dV][dP][Orn][d(aIle)][d(aThr)][d(aIle)][dV]F[Dhb]V; ester 8-C) ... 324
C/C=C1\NC(=O)[C@H](Cc2ccc3ccccc3c2)NC(=O)[C@@H](C(C)C)NC(=O)[C@@H]([C@@H](C)CC)NC(=O)[C@H](NC(=O)[C@H](NC(=O)[C@H](CCCN)NC(=O)[C@H]2CCCN2C(=O)[C@H](NC(=O)[C@@H](NC(=O)[C@@H](NC(=O)[C@H](NC(=O)CCCC(C)C)C(C)C)[C@@H](C)O)C(C)C)C(C)C)[C@@H](C)CC)[C@@H](C)OC(=O)[C@H](C(C)C)NC1=O [Compound 85, [Nal^3]-KF] ({Hexanoyl(5-Me)}-[dV]TV[dV][dP][Orn][d(aIle)][d(aThr)][d(aIle)][dV][2Nal][Dhb]V; ester 8-C) ... 37
C/C=C1\NC(=O)[C@H](Cc2ccc(F)c(F)c2)NC(=O)[C@@H](C(C)C)NC(=O)[C@@H]([C@@H](C)CC)NC(=O)[C@H](NC(=O)[C@H](NC(=O)[C@H](CCCN)NC(=O)[C@H]2CCCN2C(=O)[C@H](NC(=O)[C@@H](NC(=O)[C@@H](NC(=O)[C@H](NC(=O)CCCC(C)C)C(C)C)[C@@H](C)O)C(C)C)C(C)C)[C@@H](C)CC)[C@@H](C)OC(=O)[C@H](C(C)C)NC1=O [Compound 84, [Phe(3,4-F2)^3]-KF] ... 32.3
C/C=C1\NC(=O)[C@H](Cc2ccccc2)NC(=O)[C@@H](C(C)C)NC(=O)[C@@H]([C@@H](C)CC)NC(=O)[C@H](NC(=O)[C@H](NC(=O)[C@H](CCCN)NC(=O)[C@H]2CCCN2C(=O)[C@H](NC(=O)[C@@H](NC(=O)[C@H](CCC(=O)O)NC(=O)[C@H](NC(=O)CCCC(C)C)C(C)C)C(C)C)C(C)C)[C@@H](C)CC)[C@@H](C)OC(=O)[C@H](C(C)C)NC1=O [Compound 115, [Glu^12]-KF] ({Hexanoyl(5-Me)}-[dV]EV[dV][dP][Orn][d(aIle)][d(aThr)][d(aIle)][dV]F[Dhb]V; ester 8-C) ... 1520
C/C=C1\NC(=O)[C@H](Cc2ccccc2)NC(=O)[C@@H](C(C)C)NC(=O)[C@@H]([C@@H](C)CC)NC(=O)[C@H](NC(=O)[C@H](NC(=O)[C@H](CCCN)NC(=O)[C@H]2CCCN2C(=O)[C@H](NC(=O)[C@@H](NC(=O)[C@H](C)NC(=O)[C@H](NC(=O)CCCC(C)C)C(C)C)C(C)C)C(C)C)[C@@H](C)CC)[C@@H](C)OC(=O)[C@H](C(C)C)NC1=O [Compound 112, [Ala^12]-KF] ({Hexanoyl(5-Me)}-[dV]AV[dV][dP][Orn][d(aIle)][d(aThr)][d(aIle)][dV]F[Dhb]V; ester 8-C) ... 1110
C/C=C1\NC(=O)[C@H](c2ccccc2)NC(=O)[C@@H](C(C)C)NC(=O)[C@@H]([C@@H](C)CC)NC(=O)[C@H](NC(=O)[C@H](NC(=O)[C@H](CCCN)NC(=O)[C@H]2CCCN2C(=O)[C@H](NC(=O)[C@@H](NC(=O)[C@@H](NC(=O)[C@H](NC(=O)CCCC(C)C)C(C)C)[C@@H](C)O)C(C)C)C(C)C)[C@@H](C)CC)[C@@H](C)OC(=O)[C@H](C(C)C)NC1=O [Compound 87, [Phg^3]-KF] ({Hexanoyl(5-Me)}-[dV]TV[dV][dP][Orn][d(aIle)][d(aThr)][d(aIle)][dV][Phg][Dhb]V; ester 8-C) ... 513

Alright, here's another molecule for you.
Which GI50 value belongs to C/C=C1\NC(=O)[C@H](Cc2ccc(Cl)cc2)NC(=O)[C@@H](C(C)C)NC(=O)[C@@H]([C@@H](C)CC)NC(=O)[C@H](NC(=O)[C@H](NC(=O)[C@H](CCCN)NC(=O)[C@H]2CCCN2C(=O)[C@H](NC(=O)[C@@H](NC(=O)[C@@H](NC(=O)[C@H](NC(=O)CCCC(C)C)C(C)C)[C@@H](C)O)C(C)C)C(C)C)[C@@H](C)CC)[C@@H](C)OC(=O)[C@H](C(C)C)NC1=O [Compound 83, [Phe(4-Cl)^3]-KF] ? 38.2

---

Task for the reader: assign each of the following compounds its reported GI50.
Test system: LoVo-Dox
measurementDescription: SRB colorimetric assay of cell growth and viability, LoVo-Dox
Assay type: cell-based, human
conditionNotes: 48 hours exposure
Where a SMILES comes first, the peptide text is derived from it. Bridges are numbered along the chain shown (N, C = ends). [ ]: non-standard residue; d: D form. The star is where a group is joined. d(aIle) = CC[C@H](C)[C@@H](N)C(=O)O; d(aThr) = C[C@@H](O)[C@@H](N)C(=O)O; Hexanoyl(5-Me) = CC(C)CCCC(=O)*; Orn = NCCC[C@H](N)C(=O)O; Dhb = C/C=C(\N)C(=O)O

C/C=C1\NC(=O)[C@H](Cc2ccccc2)NC(=O)[C@@H](C(C)C)NC(=O)[C@@H]([C@@H](C)CC)NC(=O)[C@H](NC(=O)[C@H](NC(=O)[C@H](CCCN)NC(=O)[C@H]2CCCN2C(=O)[C@H](NC(=O)CCCC(C)C)C(C)C)[C@@H](C)CC)[C@@H](C)OC(=O)[C@H](C(C)C)NC1=O [Compound 31, [noVal^11, noThr^12, noD-Val^13]-KF] ({Hexanoyl(5-Me)}-[dV][dP][Orn][d(aIle)][d(aThr)][d(aIle)][dV]F[Dhb]V; ester 5-C) ... 2.38 µM

Provide GI50 values for the following items, in order.
1. C/C=C1\NC(=O)[C@H](Cc2ccccc2)NC(=O)[C@@H](C(C)C)NC(=O)[C@@H](C(C)CC)NC(=O)[C@H](NC(=O)[C@H](NC(=O)[C@H](CCCN)NC(=O)[C@H]2CCCN2C(=O)[C@H](NC(=O)[C@@H](NC(=O)[C@@H](NC(=O)[C@H](NC(=O)CCC(C)CC)C(C)C)C(C)O)C(C)C)C(C)C)C(C)CC)C(C)OC(=O)[C@H](C(C)C)NC1=O (stereo partly drawn) [Compound 1]
2. C/C=C1\NC(=O)[C@H](Cc2ccccc2)NC(=O)[C@@H](C(C)C)NC(=O)[C@@H]([C@@H](C)CC)NC(=O)[C@H](NC(=O)[C@H](NC(=O)[C@H](CCCN)NC(=O)[C@H]2CCCN2C(=O)[C@H](NC(=O)[C@@H](NC(=O)[C@@H](NC(=O)CNC(=O)CCCC(C)C)[C@@H](C)O)C(C)C)C(C)C)[C@@H](C)CC)[C@@H](C)OC(=O)[C@H](C(C)C)NC1=O [Compound 33, [Gly^13]-KF]

0.0636 µM
4.85 µM
